// data source = patent US20250195521A1

Catalogue of pIC50 values
# assayedSystem: KRAS G12D (Homo sapiens (Human), UniProt P01116+P62937, G12D)
# Sequence (P01116 other isoform, or with tags, fused parts or gaps G12D): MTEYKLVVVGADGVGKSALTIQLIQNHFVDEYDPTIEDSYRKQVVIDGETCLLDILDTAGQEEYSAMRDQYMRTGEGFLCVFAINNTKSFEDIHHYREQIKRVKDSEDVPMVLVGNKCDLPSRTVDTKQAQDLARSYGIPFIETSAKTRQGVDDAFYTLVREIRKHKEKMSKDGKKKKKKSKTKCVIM
# Sequence (P62937 whole entry): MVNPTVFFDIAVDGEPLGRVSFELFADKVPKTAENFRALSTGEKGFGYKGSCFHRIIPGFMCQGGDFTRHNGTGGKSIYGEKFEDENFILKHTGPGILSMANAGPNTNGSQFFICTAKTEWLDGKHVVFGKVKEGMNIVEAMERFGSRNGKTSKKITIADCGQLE
# assayText: Ras-Raf disruption/FRET/MOA assay, KRAS G12D
# Assay type: biochemical
# reportedConditions: read-out: KRAS G12D FRET IC50
# Text: Disruption of B-Raf Ras-Binding Domain (BRAF^RBD) Interaction with K-Ras by Compounds of the Invention (Also Called a FRET Assay or an MOA Assay) Note—The following protocol describes a procedure for monitoring disruption of K-Ras G12C (GMP-PNP) binding to BRAF^RBD by a compound of the invention. This protocol may also be executed substituting other Ras proteins or nucleotides, such as K-Ras G12D and K-Ras G13D. […]
pIC50: −log10 of the molar value.

{"molecule": "CCn1c(-c2cccnc2COC)c2c3cc(ccc31)-c1cc(O)cc(c1)C[C@H](NC(=O)[C@H](C(C)C)N(C)C(=O)CCNC1=NCCO1)C(=O)N1CCC[C@H](N1)C(=O)OCC(C)(C)C2 [Example 27]", "pIC50": "< 5.00"}
{"molecule": "CCn1c(-c2cnccc2COC)c2c3cc(ccc31)-c1cc(O)cc(c1)C[C@H](NC(=O)[C@@H](CCNC1=NCCO1)C(C)C)C(=O)N1CCC[C@H](N1)C(=O)OCC(C)(C)C2 [Example 30]", "pIC50": "< 5.00"}
{"molecule": "CCn1c(-c2cnccc2COC)c2c3cc(ccc31)-c1cc(O)cc(c1)C[C@H](NC(=O)[C@H](C(C)C)N(C)C(=O)N1CCCN(C(=O)[C@H]3CN3)CC1)C(=O)N1CCC[C@H](N1)C(=O)OCC(C)(C)C2 [Example 44]", "pIC50": "6.00 to 7.00"}
{"molecule": "CCn1c(-c2cnccc2COC)c2c3cc(ccc31)-c1cc(O)cc(c1)C[C@H](NC(=O)[C@H](C(C)C)N(C)C(=O)CCN(C)C(=O)[C@@H]1CN1)C(=O)N1CCC[C@H](N1)C(=O)OCC(C)(C)C2 [Example 40]", "pIC50": "6.00 to 7.00"}
{"molecule": "CCn1c(-c2cnccc2COC)c2c3cc(ccc31)-c1cc(O)cc(c1)C[C@H](NC(=O)[C@H](C(C)C)N(C)C(=O)N1CCCN(C(=O)[C@@H]3CN3)CC1)C(=O)N1CCC[C@H](N1)C(=O)OCC(C)(C)C2 [Example 45]", "pIC50": "6.00 to 7.00"}
{"molecule": "CCn1c(-c2cnccc2COC)c2c3cc(ccc31)-c1cc(O)cc(c1)C[C@H](NC(=O)[C@H](C(C)C)N(C)C(=O)C1CN(C(=O)[C@H]3CN3)C1)C(=O)N1CCC[C@H](N1)C(=O)OCC(C)(C)C2 [Example 5]", "pIC50": "5.00 to 6.00"}
{"molecule": "CCn1c(-c2cnccc2COC)c2c3cc(ccc31)-c1cc(O)cc(c1)C[C@H](NC(=O)[C@@H](CN(C)C(=O)[C@H]1CN1)C(C)C)C(=O)N1CCC[C@H](N1)C(=O)OCC(C)(C)C2 [Example 99]", "pIC50": "< 5.00"}

====

# assayedSystem: KRAS G12S (Homo sapiens (Human), UniProt P01116+P62937, G12S)
# Sequence (P01116 other isoform, or with tags, fused parts or gaps G12S): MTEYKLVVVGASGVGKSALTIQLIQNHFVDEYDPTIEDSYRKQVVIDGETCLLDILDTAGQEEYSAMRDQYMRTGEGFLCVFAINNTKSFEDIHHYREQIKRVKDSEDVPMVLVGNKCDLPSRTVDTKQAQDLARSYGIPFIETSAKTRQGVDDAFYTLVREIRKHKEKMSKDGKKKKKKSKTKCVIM
# Sequence (P62937 whole entry): as the sequence (P62937 whole entry) above
# assayText: Ras-Raf disruption/FRET/MOA assay, KRAS G12S
# Type: biochemical
pIC50: −log10 of the molar value.
Catalogue of pIC50 values
assayEndpoint: pIC50

{"compound": "CCn1c(-c2cnccc2COC)c2c3cc(ccc31)-c1cc(O)cc(c1)C[C@H](NC(=O)[C@H](C(C)C)N(C)C(=O)CN(C)C(=O)[C@@H]1N[C@@H]1C1CC1)C(=O)N1CCC[C@H](N1)C(=O)OCC(C)(C)C2 [Example 103]", "assayedSystem": "KRAS G12S (Homo sapiens (Human), UniProt P01116+P62937, G12S)", "assayEndpoint": "pIC50", "result": "7.00 to 8.00"}
{"compound": "CCn1c(-c2cnccc2COC)c2c3cc(ccc31)-c1cc(O)cc(c1)C[C@H](NC(=O)[C@H](C(C)C)N(C)C(=O)CN(C)C(=O)[C@H]1N[C@H]1c1ccc(OC)cc1)C(=O)N1CCC[C@H](N1)C(=O)OCC(C)(C)C2 [Example 93]", "assayedSystem": "KRAS G12S (Homo sapiens (Human), UniProt P01116+P62937, G12S)", "assayEndpoint": "pIC50", "result": "7.00 to 8.00"}
